Please go through the items and note down their MIC.
Tested on: Ps. aeruginosa Walter
assayMethodText: minimum inhibitory concentration, series dilution method on Iso-Sensitest agar
Assay type: cell-based
studyConditions: Pseudomonas aeruginosa, 37° C., about 20 hours
Give bare numbers, in µg/mL.

INSERT INTO results (molecule, displayunit, readoutnumber) VALUES
  ('N[C@@H]1CCC=C2CN(c3c(F)cc4c(=O)c(C(=O)O)cn(C5CC5)c4c3Cl)C[C@@H]21 (racemic) [Example 3]', 'µg/mL', 0.5);

Each molecule below has a recorded value; state its MIC.
1. NC1C=CCC2CN(c3cc4c(cc3F)c(=O)c(C(=O)O)cn4C3CC3)CC12 (stereo not shown) [Example 19, reference compound]
2. NC1C=CCC2CN(c3c(F)cc4c(=O)c(C(=O)O)cn(C5CC5)c4c3Cl)CC12 (stereo not shown) [Example 18 A, reference compound]
3. N[C@@H]1CCC=C2CN(c3cc4c(cc3F)c(=O)c(C(=O)O)cn4C3CC3)C[C@@H]21 (racemic) [Example 2]

1: 1; 2: 0.25; 3: 1

###

assayMethodText: inhibition of DNA synthesis in CHO-KI cells (interactions with mammalian DNA), fluorophotometric
Assay type: cell-based, Chinese hamster
studyConditions: hamster, cho-k1 cells, measure of interactions with mammalian DNA, read-out: ID50 (concentration at which DNA synthesis is inhibited by 50%)
measuredMetric: IC50
In your response, put the unit directly after the numeric value.

INSERT INTO results (molecule, result) VALUES
  ('N[C@@H]1CCC=C2CN(c3c(F)cc4c(=O)c(C(=O)O)cn([C@@H]5C[C@@H]5F)c4c3F)C[C@@H]21 (relative stereo)', '2 µg/mL'),
  ('NC1C=CCC2CN(c3c(F)cc4c(=O)c(C(=O)O)cn(C5CC5)c4c3F)CC12 (stereo not drawn) [Example 17 B, reference compound]', '0.01 µg/mL');

// next item, IC50 requested
Indicate its recorded IC50; the molecule in question is NC1C=CCC2CN(c3cc4c(cc3F)c(=O)c(C(=O)O)cn4C3CC3)CC12 (stereo not drawn) [Example 19, reference compound]
1 µg/mL

###

assayMethodText: inhibition of DNA synthesis in CHO-KI cells (interactions with mammalian DNA), fluorophotometric
Format: cell-based, Chinese hamster
studyConditions: hamster, cho-k1 cells, measure of interactions with mammalian DNA, read-out: ID50 (concentration at which DNA synthesis is inhibited by 50%)
Please go through the items and note down their IC50.
Numbers only, in µg/mL.

INSERT INTO measurements (molecule, measuredmetric, readoutnumber) VALUES
  ('N[C@@H]1CCC=C2CN(c3cc4c(cc3F)c(=O)c(C(=O)O)cn4C3CC3)C[C@@H]21 (racemic)', 'IC50', 2),
  ('NC1C=CCC2CN(c3c(F)cc4c(=O)c(C(=O)O)cn(C5CC5)c4c3Cl)CC12 (stereo not shown) [Example 18 A, reference compound]', 'IC50', 0.06),
  ('N[C@@H]1CCC=C2CN(c3c(F)cc4c(=O)c(C(=O)O)cn(C5CC5)c4c3F)C[C@@H]21 (racemic)', 'IC50', 4);

// next item, IC50 requested
Indicate its recorded IC50; the molecule in question is N[C@@H]1CCC=C2CN(c3c(F)cc4c(=O)c(C(=O)O)cn(C5CC5)c4c3Cl)C[C@@H]21 (racemic)
0.1
